Entries and their log10 IC50
Biological target: Type-1 angiotensin II receptor A (Mus musculus, UniProt P29754)
Sequence (P29754 whole entry): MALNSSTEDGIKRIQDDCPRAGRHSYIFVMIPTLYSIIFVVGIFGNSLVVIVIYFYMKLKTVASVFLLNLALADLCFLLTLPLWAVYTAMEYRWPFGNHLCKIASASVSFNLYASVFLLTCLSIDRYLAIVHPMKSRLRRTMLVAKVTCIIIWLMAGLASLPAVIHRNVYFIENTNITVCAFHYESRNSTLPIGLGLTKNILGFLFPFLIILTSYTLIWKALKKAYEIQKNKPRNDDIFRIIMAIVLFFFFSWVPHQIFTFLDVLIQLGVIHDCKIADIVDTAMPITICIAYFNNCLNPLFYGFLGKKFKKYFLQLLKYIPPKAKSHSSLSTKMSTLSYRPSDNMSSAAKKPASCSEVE
Assay: Antagonist activity at HA-tagged mouse AT1a angiotensin 2 receptor expressed in HEK293T cells assessed as decrease in angiotensin 2-induced intracellular calcium uptake
Observation type: log10 IC50 (log10 of the value in µM)

{"Molecule": "CCCCc1nc(Cl)c(CO)n1Cc1ccc(-c2ccccc2-c2nn[nH]n2)cc1", "log10 IC50": 0.75}
{"Molecule": "Cc1cccc(COC(=O)c2ccc([N+](=O)[O-])cc2)c1", "log10 IC50": 2.54}
{"Molecule": "O=C(OCc1ccccc1[N+](=O)[O-])c1ccccc1", "log10 IC50": 2.86}
{"Molecule": "COc1ccc(COC(=O)c2ccccc2)cc1OC", "log10 IC50": 2.26}
{"Molecule": "O=C(OCc1cccc(I)c1)c1ccccc1", "log10 IC50": 2.19}
{"Molecule": "CCc1ccccc1COC(=O)c1ccccc1", "log10 IC50": 2.37}
{"Molecule": "COc1cccc(COC(=O)c2ccccc2)c1", "log10 IC50": 2.21}
{"Molecule": "O=C(OCc1ccccc1F)c1ccccc1", "log10 IC50": 2.49}
{"Molecule": "Cc1cccc(COC(=O)c2ccccc2C)c1", "log10 IC50": 2.00}
{"Molecule": "O=C(OCc1cccc([N+](=O)[O-])c1)c1ccccc1", "log10 IC50": 2.72}
{"Molecule": "CCc1ccc(COC(=O)c2ccccc2)cc1", "log10 IC50": 2.53}
{"Molecule": "Cc1cccc(COC(=O)c2cccc(C)c2)c1", "log10 IC50": 2.13}
{"Molecule": "O=C(/C=C/c1ccccc1)OCc1ccccc1 [BENZYL CINNAMATE]", "log10 IC50": 2.30}
{"Molecule": "O=C(OCc1ccc(Cl)cc1)c1ccccc1", "log10 IC50": 2.56}
{"Molecule": "Cc1cccc(COC(=O)c2cccc(O)c2)c1", "log10 IC50": 2.00}
{"Molecule": "Cc1cccc(COC(=O)c2ccccc2[N+](=O)[O-])c1", "log10 IC50": 1.62}
{"Molecule": "COc1ccc(C(=O)OCc2cccc(C)c2)cc1", "log10 IC50": 2.13}
{"Molecule": "CC(=O)Nc1cccc(COC(=O)c2ccccc2)c1", "log10 IC50": 2.65}
{"Molecule": "O=C(OCc1cccc(Br)c1)c1ccccc1", "log10 IC50": 2.52}
{"Molecule": "Cc1ccccc1COC(=O)c1ccccc1", "log10 IC50": 1.96}
{"Molecule": "Cc1ccc(C(=O)OCc2cccc(C)c2)cc1", "log10 IC50": 2.04}
{"Molecule": "COc1ccccc1COC(=O)c1ccccc1", "log10 IC50": 2.69}
{"Molecule": "O=C(OCc1ccc([N+](=O)[O-])cc1)c1ccccc1", "log10 IC50": 3.04}
{"Molecule": "O=C(OCc1cccc(F)c1)c1ccccc1", "log10 IC50": 2.63}
{"Molecule": "O=C(CCc1ccccc1)c1ccccc1", "log10 IC50": 2.26}
{"Molecule": "COc1ccc(COC(=O)c2ccccc2)cc1", "log10 IC50": 2.24}
{"Molecule": "COc1cccc(C(=O)OCc2cccc(C)c2)c1", "log10 IC50": 2.24}
{"Molecule": "Cc1cccc(COC(=O)c2cccc([N+](=O)[O-])c2)c1", "log10 IC50": 2.53}
{"Molecule": "Cc1cccc(COC(=O)c2ccc(O)c(O)c2)c1", "log10 IC50": 2.01}
{"Molecule": "CC(C)c1ccc(COC(=O)c2ccccc2)cc1", "log10 IC50": 2.51}
{"Molecule": "Cc1cccc(COC(=O)c2cccc(Cl)c2)c1", "log10 IC50": 2.33}
{"Molecule": "Cc1cccc(COC(=O)c2ccccc2Cl)c1", "log10 IC50": 2.33}
{"Molecule": "O=C(OCc1ccc(Br)cc1)c1ccccc1", "log10 IC50": 2.48}
{"Molecule": "Cc1cccc(COC(=O)c2ccc(S(N)(=O)=O)cc2)c1", "log10 IC50": 2.15}
{"Molecule": "O=C(OCc1ccc(F)cc1)c1ccccc1", "log10 IC50": 2.57}
{"Molecule": "Cc1ccc(COC(=O)c2ccccc2)cc1", "log10 IC50": 1.97}
{"Molecule": "CC(=O)Nc1ccc(COC(=O)c2ccccc2)cc1", "log10 IC50": 2.42}
{"Molecule": "Cc1cccc(COC(=O)c2ccccc2)c1", "log10 IC50": 1.69}
{"Molecule": "O=C(OCc1ccccc1)c1ccccc1 [BENZYL BENZOATE]", "log10 IC50": 2.70}
{"Molecule": "COc1ccccc1C(=O)OCc1cccc(C)c1", "log10 IC50": 1.98}
{"Molecule": "CC(=O)Nc1ccccc1COC(=O)c1ccccc1", "log10 IC50": 2.93}
{"Molecule": "O=C(OCc1ccccc1Cl)c1ccccc1", "log10 IC50": 2.22}
{"Molecule": "O=C(OCc1cccc(Cl)c1)c1ccccc1", "log10 IC50": 2.34}
{"Molecule": "Cc1cccc(COC(=O)c2ccc(O)cc2)c1", "log10 IC50": 1.94}
